System: RPMI-8226
Experiment description: Growth inhibition of human RPMI8226 cells after 48 hrs by sulforhodamine B assay
Type: functional
Stated conditions: RPMI-8226, 48 h
Measurement kind: GI50 (µM)

compound_structure=CC(C)=CCC/C(C)=C/CC/C(C)=C/CC[C@]1(C)CCc2c3c(c(C)c(C)c2O1)OCN(CCCCCCO)C3 observed_value=3.36
compound_structure=COc1ccc(CCN2COc3cc(C)c4c(c3C2)CC[C@@](C)(CC/C=C(\C)CC/C=C(\C)CCC=C(C)C)O4)cc1OC observed_value=3.07
compound_structure=CC(C)=CCC/C(C)=C/CC/C(C)=C/CC[C@]1(C)CCc2c3c(cc(C)c2O1)OCN(CCCO)C3 observed_value=2.16
compound_structure=CC(C)=CCC/C(C)=C/CC/C(C)=C/CC[C@]1(C)CCc2c3c(cc(C)c2O1)OCN(CCCCCCCCO)C3 observed_value=1.22
compound_structure=CC(C)=CCC/C(C)=C/CC/C(C)=C/CC[C@]1(C)CCc2c3c(c(C)c(C)c2O1)OCN(CCCCCCCCO)C3 observed_value=3.13
compound_structure=CC(C)=CCC/C(C)=C/CC/C(C)=C/CC[C@]1(C)CCc2c3c(cc(C)c2O1)OCN(CCCCO)C3 observed_value=20.4
compound_structure=CC(C)=CCC/C(C)=C/CC/C(C)=C/CC[C@]1(C)CCc2c3c(cc(C)c2O1)OCN(CCCCCO)C3 observed_value=9.91
compound_structure=CC(C)=CCC/C(C)=C/CC/C(C)=C/CC[C@]1(C)CCc2c3c(cc(C)c2O1)OCN(CCCCCCO)C3 observed_value=1.11

---

Tested on: LOX IMVI
Experiment description: Growth inhibition of human LOXIMVI cells assessed as cell growth at 10 uM after 48 hrs by sulforhodamine B assay
Format: functional
Stated conditions: read-out: Activity
Measurement kind: growth at 10 µM (%)

compound_structure=CC(C)=CCC/C(C)=C/CC/C(C)=C/CC[C@]1(C)CCc2c3c(cc(C)c2O1)OCN(CCCCO)C3 measurement_kind="growth at 10 µM" observed_value=100
compound_structure=CC(C)=CCC/C(C)=C/CC/C(C)=C/CC[C@]1(C)CCc2c3c(c(C)c(C)c2O1)OCN(CCc1ccc(O)cc1)C3 measurement_kind="growth at 10 µM" observed_value=30.3
compound_structure=CC(C)=CCC/C(C)=C/CC/C(C)=C/CC[C@]1(C)CCc2c3c(cc(C)c2O1)OCN(CCCCCO)C3 measurement_kind="growth at 10 µM" observed_value=-0.88
compound_structure=CC(C)=CCC/C(C)=C/CC/C(C)=C/CC[C@]1(C)CCc2c3c(c(C)c(C)c2O1)OCN(CCCCO)C3 measurement_kind="growth at 10 µM" observed_value=-90.5

---

Test system: LOX IMVI
Experiment description: Growth inhibition of human LOXIMVI cells assessed as cell growth at 10 uM after 48 hrs by sulforhodamine B assay
Format: functional
Stated conditions: read-out: Activity
Measurement kind: growth at 10 µM (%)

compound_structure=COc1ccc(CCNCc2c(O)c(C)c(C)c3c2CC[C@@](C)(CC/C=C(\C)CC/C=C(\C)CCC=C(C)C)O3)cc1OC observed_value=52.9
compound_structure=CC(C)=CCC/C(C)=C/CC/C(C)=C/CC[C@]1(C)CCc2c3c(c(C)c(C)c2O1)OCN(CCCCCCCCCCO)C3 observed_value=93.6
compound_structure=CC(C)=CCC/C(C)=C/CC/C(C)=C/CC[C@]1(C)CCc2c3c(cc(C)c2O1)OCN(CCCCCCCCCCCCO)C3 observed_value=67.1
compound_structure=CC(C)=CCC/C(C)=C/CC/C(C)=C/CC[C@]1(C)CCc2c3c(c(C)c(C)c2O1)OCN(CCCCCCO)C3 observed_value=-88.4
compound_structure=COc1ccc(CCN2COc3cc(C)c4c(c3C2)CC[C@@](C)(CC/C=C(\C)CC/C=C(\C)CCC=C(C)C)O4)cc1OC observed_value=-77.7
compound_structure=CC(C)=CCC/C(C)=C/CC/C(C)=C/CC[C@]1(C)CCc2c3c(c(C)c(C)c2O1)OCN(CCCCCCCCCCCCO)C3 observed_value=100
compound_structure=CC(C)=CCC/C(C)=C/CC/C(C)=C/CC[C@]1(C)CCc2c3c(c(C)c(C)c2O1)OCN(CCCCCO)C3 observed_value=40.2
compound_structure=CC(C)=CCC/C(C)=C/CC/C(C)=C/CC[C@]1(C)CCc2c3c(cc(C)c2O1)OCN(CCCCCCCCCCO)C3 observed_value=87.3
compound_structure=CC(C)=CCC/C(C)=C/CC/C(C)=C/CC[C@]1(C)CCc2c3c(cc(C)c2O1)OCN(CCCCCCCCO)C3 observed_value=-86.9
compound_structure=COc1ccc(CCN2COc3c(C)c(C)c4c(c3C2)CC[C@@](C)(CC/C=C(\C)CC/C=C(\C)CCC=C(C)C)O4)cc1OC observed_value=98.6
compound_structure=CC(C)=CCC/C(C)=C/CC/C(C)=C/CC[C@]1(C)CCc2c3c(c(C)c(C)c2O1)OCN(CCCCCCCCO)C3 observed_value=-80.1
compound_structure=CC(C)=CCC/C(C)=C/CC/C(C)=C/CC[C@]1(C)CCc2cc(O)c(C)c(C)c2O1 observed_value=90
compound_structure=CC(C)=CCC/C(C)=C/CC/C(C)=C/CC[C@]1(C)CCc2c(CNCCc3ccc(O)cc3)c(O)c(C)c(C)c2O1 observed_value=63.9
compound_structure=CC(C)=CCC/C(C)=C/CC/C(C)=C/CC[C@]1(C)CCc2c3c(cc(C)c2O1)OCN(CCc1ccc(O)cc1)C3 observed_value=-93
compound_structure=CC(C)=CCC/C(C)=C/CC/C(C)=C/CC[C@]1(C)CCc2c3c(cc(C)c2O1)OCN(CCCO)C3 observed_value=-89.8
compound_structure=CC(C)=CCC/C(C)=C/CC/C(C)=C/CC[C@]1(C)CCc2c3c(cc(C)c2O1)OCN(CCCCCCO)C3 observed_value=-90.8
compound_structure=CC(C)=CCC/C(C)=C/CC/C(C)=C/CC[C@]1(C)CCc2c3c(cc(C)c2O1)OCN(C1CCN(Cc2ccccc2)CC1)C3 observed_value=-47.4
